Tested on: Paracentrotus lividus
Test: Antimitotic activity in sea urchin embryo assessed as cleavage arrest exposed 8 to 15 mins after fertilization 45 to 55 mins before first mitotic cycle completion measured at 2.5 to 5.5 hrs post dose
Type: functional
Assign labels as follows, please: label 1 for EC below 0.1 µM; label 0 for EC equal to or exceeding 0.1 µM.

Record excerpt, results attached:
{"COMPOUND": "COc1ccc(C2CC(=O)Nc3c(-c4ccc(F)cc4)nsc32)cc1 (configuration not stated)", "DISCRETE_LABEL": "label 0"}
{"COMPOUND": "COc1cc(C2CC(=O)Nc3c(-c4ccc(F)cc4)nsc32)cc2c1OCO2 (configuration not stated)", "DISCRETE_LABEL": "label 0"}
{"COMPOUND": "O=C1CC(c2ccsc2)c2snc(-c3ccc(F)cc3)c2N1 (configuration not stated)", "DISCRETE_LABEL": "label 0"}
{"COMPOUND": "COc1ccc(/C=C\\c2cc(OC)c(OC)c(OC)c2)cc1OP(=O)([O-])[O-].[Na+].[Na+] [FOSBRETABULIN DISODIUM]", "DISCRETE_LABEL": "label 1"}
{"COMPOUND": "COc1cc(C2CC(=O)Nc3c(-c4ccc(F)cc4)nsc32)c(OC)c2c1OCO2 (configuration not stated)", "DISCRETE_LABEL": "label 0"}
{"COMPOUND": "O=C1CC(c2ccc3c(c2)OCO3)c2snc(-c3cccc(F)c3)c2N1 (configuration not stated)", "DISCRETE_LABEL": "label 0"}
{"COMPOUND": "COc1ccc(-c2nsc3c2NC(=O)CC3c2cccc(Cl)c2)cc1OC (configuration not stated)", "DISCRETE_LABEL": "label 0"}
{"COMPOUND": "O=C1CC(c2ccc(Cl)cc2)c2snc(-c3cccc(F)c3)c2N1 (configuration not stated)", "DISCRETE_LABEL": "label 0"}
{"COMPOUND": "COc1ccc(-c2nsc3c2NC(=O)CC3c2ccsc2)cc1 (configuration not stated)", "DISCRETE_LABEL": "label 1"}
{"COMPOUND": "COc1ccc(-c2nsc3c2NC(=O)CC3c2cc3c(c(OC)c2OC)OCO3)cc1 (configuration not stated)", "DISCRETE_LABEL": "label 0"}

query: Below 0.1 µM on EC? Entry COc1ccc(-c2nsc3c2NC(=O)CC3c2cc(OC)c(O)c(O)c2OC)cc1 (configuration not stated)
result: label 0

query: Below 0.1 µM on EC? Entry COc1ccc(-c2nsc3c2NC(=O)CC3c2cccc(OC)c2)cc1 (configuration not stated)
result: label 1

query: Below 0.1 µM on EC? Entry O=C1CC(c2ccc3c(c2)OCO3)c2snc(-c3ccc(F)cc3)c2N1 (configuration not stated)
result: label 0

query: Below 0.1 µM on EC? Entry COc1cc(C2CC(=O)Nc3c(-c4ccccc4)nsc32)c(OC)c(O)c1O (configuration not stated)
result: label 0

query: Below 0.1 µM on EC? Entry COc1cccc(C2CC(=O)Nc3c(-c4ccc(F)cc4)nsc32)c1 (configuration not stated)
result: label 0

query: Below 0.1 µM on EC? Entry COc1cc(C2CC(=O)Nc3c(-c4ccccc4)nsc32)cc2c1OCO2 (configuration not stated)
result: label 0

query: Below 0.1 µM on EC? Entry O=C1CC(c2ccc(F)cc2)c2snc(-c3cccc(F)c3)c2N1 (configuration not stated)
result: label 0

query: Below 0.1 µM on EC? Entry COc1cc(C2CC(=O)Nc3c(-c4cccc(F)c4)nsc32)cc2c1OCO2 (configuration not stated)
result: label 0

query: Below 0.1 µM on EC? Entry COc1ccc(C2CC(=O)Nc3c(-c4cccc(F)c4)nsc32)cc1 (configuration not stated)
result: label 0

query: Below 0.1 µM on EC? Entry COc1cc(C2CC(=O)Nc3c(-c4ccc(Cl)cc4)nsc32)cc2c1OCO2 (configuration not stated)
result: label 0

Data provenance: ChEMBL document CHEMBL3877272
